Assay: Time taken to decrease plasma concentration to half of its initial concentration after ip administration
Type: ADME, organism-based
Measurement type: half-life (min)
Value expressed in min; do not type the unit.

Prompt: What value of measured half-life is listed for "Cc1cn([C@H]2C[C@H](N=[N+]=[N-])[C@@H](CO)O2)c(=O)[nH]c1=O" ?
Response: 16.8

====

Answer each item with its documented AUC.
Assay: Pharmacokinetic parameter AUC in mice following a single dose intraperitoneal administration of the compound
Conditions: mouse, in vivo, ip
Value expressed in ng·h/mL; do not type the unit.

Prompt: What value of measured AUC is listed for CCCCCCCCCCCCCCCCCCSCC(COP(=O)([O-])OP(=O)([O-])OC[C@H]1O[C@@H](n2cc(C)c(=O)[nH]c2=O)C[C@@H]1N=[N+]=[N-])OC(=O)CCCCCCCCCCCCCCC.[Na+].[Na+] (stereo partly drawn) ?
Response: 25800

Prompt: What value of measured AUC is listed for [N-]=[N+]=N[C@H]1C[C@H](n2ccc(=O)[nH]c2=O)O[C@@H]1CO [NAVURIDINE] ?
Response: 42300

Prompt: What value of measured AUC is listed for Cc1cn([C@H]2C[C@H](N=[N+]=[N-])[C@@H](CO)O2)c(=O)[nH]c1=O [ZIDOVUDINE] ?
Response: 175000

====

Answer each item with its documented half-life.
Assay: Time taken to decrease plasma concentration to half of its initial concentration after iv administration
Assay type: ADME, organism-based
Value expressed in h; do not type the unit.

Prompt: What value of measured half-life is listed for [N-]=[N+]=N[C@H]1C[C@H](n2ccc(=O)[nH]c2=O)O[C@@H]1CO [NAVURIDINE] ?
Response: 0.89

Prompt: What value of measured half-life is listed for CCCCCCCCCCCCCCCCCCSCC(COP(=O)([O-])OP(=O)([O-])OC[C@H]1O[C@@H](n2ccc(=O)[nH]c2=O)C[C@@H]1N=[N+]=[N-])OC(=O)CCCCCCCCCCCCCCC.[Na+].[Na+] (some centres not stated) ?
Response: 6.5

====

Tested on: CCRF-CEM
Assay: Effective concentration against HIV-1-infected CEM cells in mice administered intraperitoneally
Assay type: functional, cell-based
Conditions: Homo sapiens, in the assay text read “in vitro” for “in mice administered intraperitoneally”
Answer each item with its documented EC50.
Value expressed in µM; do not type the unit.

Prompt: What value of measured EC50 is listed for CCCCCCCCCCCCCCCCCCSCC(COP(=O)(O)OP(=O)(O)OC[C@@H]1CC[C@H](n2ccc(N)nc2=O)O1)OC(=O)CCCCCCCCCCCCCCC (stereo not given in full) ?
Response: 130

Prompt: What value of measured EC50 is listed for CCCCCCCCCCCCCCCC(=O)OC(COCCCCCCCCCCCCCC)COP(=O)(O)OP(=O)(O)OC[C@H]1O[C@@H](n2cc(C)c(=O)[nH]c2=O)C[C@@H]1N=[N+]=[N-] (stereo not given in full) ?
Response: 57

Prompt: What value of measured EC50 is listed for "Cc1cn([C@H]2C[C@H](N=[N+]=[N-])[C@@H](CO)O2)c(=O)[nH]c1=O" ?
Response: 0.186

Prompt: What value of measured EC50 is listed for CCCCCCCCCCCCCCCCCCSCC(COP(=O)([O-])OP(=O)([O-])OC[C@H]1O[C@@H](n2ccc(=O)[nH]c2=O)C[C@@H]1N=[N+]=[N-])OC(=O)CCCCCCCCCCCCCCC.[Na+].[Na+] (stereo not given in full) ?
Response: 17
